Quick list: mortality at 25 µg/mL per entry.
Test system: Mythimna separata
Test: Insecticidal activity against fourth-instar larvae of Mythimna separata (Oriental armyworm) reared on compound pre-treated corn leaves assessed as mortality at 25 ug/mL measured 72 hr post compound treatment by leaf-dipping assay
Type: functional
PARAMETER: mortality at 25 µg/mL (%)

1) O=C(Nc1ccc(Cl)cc1)c1cc(Br)nn1-c1ncccc1Cl: 70
2) O=C(Nc1ccc([N+](=O)[O-])cc1Cl)c1cc(Br)nn1-c1ncccc1Cl: 100
3) Cc1cc(Br)cc(C)c1NC(=O)c1cc(Br)nn1-c1ncccc1Cl: 100
4) Cc1cc([N+](=O)[O-])cc(Cl)c1NC(=O)c1cc(Br)nn1-c1ncccc1Cl: 70
5) Cc1cc(Cl)cc(C)c1NC(=O)c1cc(Br)nn1-c1ncccc1Cl: 80
6) Cc1cc([N+](=O)[O-])ccc1NC(=O)c1cc(Br)nn1-c1ncccc1Cl: 80
7) O=C(Nc1ccc(F)cc1)c1cc(Br)nn1-c1ncccc1Cl: 50
8) Cc1cc(Cl)cc([N+](=O)[O-])c1NC(=O)c1cc(Br)nn1-c1ncccc1Cl: 60

* * *

Quick list: mortality at 100 µg/mL per entry.
Tested on: Plutella xylostella
Test: Insecticidal activity against Plutella xylostella (diamondback moth) second-instar larvae infested on compound pre-treated cabbage leaves assessed as mortality at 100 ug/mL measured 3 days post compound treatment by leaf-dipping assay
Format: functional
PARAMETER: mortality at 100 µg/mL

1. Cc1cc(Cl)cc([N+](=O)[O-])c1NC(=O)c1cc(Br)nn1-c1ncccc1Cl: 89%
2. Cc1cc(Br)cc(C)c1NC(=O)c1cc(Br)nn1-c1ncccc1Cl: 72%
3. O=C(Nc1ccc([N+](=O)[O-])cc1Cl)c1cc(Br)nn1-c1ncccc1Cl: 72%
4. O=C(Nc1ccc([N+](=O)[O-])cc1Br)c1cc(Br)nn1-c1ncccc1Cl: 98%
5. O=C(Nc1ccc(F)cc1)c1cc(Br)nn1-c1ncccc1Cl: 98%
6. Cc1cc(Cl)cc(C)c1NC(=O)c1cc(Br)nn1-c1ncccc1Cl: 100%
7. O=C(Nc1ccc(Cl)cc1)c1cc(Br)nn1-c1ncccc1Cl: 98%

* * *

Quick list: mortality at 50 µg/mL per entry.
Tested on: Spodoptera exigua
Assay: Insecticidal activity against Spodoptera exigua third-instar larvae infested on compound pre-treated cabbage leaves assessed as mortality at 50 ug/mL measured 3 days post compound treatment by leaf-dipping assay
Assay type: functional
PARAMETER: mortality at 50 µg/mL (%)

1. Cc1cc(Cl)cc(C)c1NC(=O)c1cc(Br)nn1-c1ncccc1Cl: 98
2. Cc1cc(Cl)cc([N+](=O)[O-])c1NC(=O)c1cc(Br)nn1-c1ncccc1Cl: 95
3. O=C(Nc1ccc(Cl)cc1)c1cc(Br)nn1-c1ncccc1Cl: 100
4. CNC(=O)c1cc(Cl)cc(C)c1NC(=O)c1cc(Br)nn1-c1ncccc1Cl: 100
5. O=C(Nc1ccc([N+](=O)[O-])cc1Br)c1cc(Br)nn1-c1ncccc1Cl: 100
6. Cc1cc(Br)cc(C)c1NC(=O)c1cc(Br)nn1-c1ncccc1Cl: 89
7. O=C(Nc1ccc(F)cc1)c1cc(Br)nn1-c1ncccc1Cl: 92
8. O=C(Nc1ccc([N+](=O)[O-])cc1Cl)c1cc(Br)nn1-c1ncccc1Cl: 78
